Protocol summary: Cytotoxicity against human CRL8155 cells after 48 hrs by alamar blue assay
Format: cell-based
Conditions used: crl8155, 48 h
Please respond with reported CC50 for every item in the list.
Please state the figure in µM; there is no need to write the unit.

Q. Quick check: CC50 of CN(CCN[C@@H]1CCNc2c(Cl)cc(Cl)cc21)c1nc2nc(Cl)ccc2[nH]1 ?
A. 18.5

Q. What about Clc1cc(Br)cc(CN[C@H]2CCCN(c3nc4nc(Cl)ccc4[nH]3)C2)c1 ?
A. 43

Q. Try this compound too: Clc1cc(Cl)c2c(c1)C(N[C@H]1CCCN(c3nc4nc(Cl)ccc4[nH]3)C1)CCN2 (stereo not given in full)
A. 19

Q. Also need CCOc1c(Br)cc(Br)cc1CN[C@H]1CCCN(c2nc3nc(Cl)ccc3[nH]2)C1 , thanks.
A. 10.5

Q. And then Clc1ccc2nc(N3CCC[C@H](NCc4cc(Br)cc(Br)c4)C3)[nH]c2n1 , what is it?
A. 47.6

----------
Task for the reader: assign each of the following molecules its reported pIC50.
Protocol summary: Inhibition of Trypanosoma brucei methionyl tRNA synthetase using L-methionine as substrate preincubated for 15 mins followed by substrate addition measured after 120 mins in presence of ATP by Kinase Glo chemiluminescence assay
pIC50: −log10 of the molar value.

Q. # get_value(readout='pIC50', item= CN(CCNC(C(N)=O)c1cc(Cl)cc(Cl)c1)c1nc2nc(Cl)ccc2[nH]1 (stereo not drawn) )
A. 7.12

Q. What do we get for Clc1ccc2nc(N3CCC[C@H](NCc4cc(Br)cc(Br)c4)C3)[nH]c2n1 ?
A. > 7.30

Q. How about this molecule: Clc1cc(Cl)c(OCC2CC2)c(CN[C@H]2CCCN(c3nc4nc(Cl)ccc4[nH]3)C2)c1
A. > 7.30

----------
System: HepG2
Protocol summary: Cytotoxicity against human HepG2 cells after 48 hrs by alamar blue assay
Assay type: cell-based
Conditions used: hepg2, 48 h
Please go through the items and note down their CC50.

Q. Short answer please: CC50, HepG2, entry Clc1cc(Cl)c2c(c1)C(N[C@H]1CCCN(c3nc4nc(Cl)ccc4[nH]3)C1)CCN2 (stereo not given in full)
A. 40.2 µM

Q. Same thing, different compound: CCOc1c(Br)cc(Br)cc1CN[C@H]1CCCN(c2nc3nc(Cl)ccc3[nH]2)C1
A. 18.7 µM

Q. Now this one: Clc1cc(Br)cc(CN[C@H]2CCCN(c3nc4nc(Cl)ccc4[nH]3)C2)c1
A. > 50 µM

Q. Moving on to CN(CCN[C@@H]1CCNc2c(Cl)cc(Cl)cc21)c1nc2nc(Cl)ccc2[nH]1
A. 30.6 µM

Q. Next: Clc1ccc2nc(N3CCC[C@H](NCc4cc(Br)cc(Br)c4)C3)[nH]c2n1
A. 39.1 µM

----------
Protocol summary: Cmax in mouse at 50 mg/kg, administered through oral gavage by LC-MS analysis
Assay type: ADME, organism-based
Design: dose 50 mg/kg, route oral
Conditions used: in vivo
Can you tell me Cmax for the items I'm about to list?
# unit: µM | format: bare number

Q. What value of measured Cmax is listed for CN(CCN[C@@H]1CCNc2c(Cl)cc(Cl)cc21)c1nc2nc(Cl)ccc2[nH]1 ?
A. 1.3

Q. Param item: Clc1cc(Cl)c2c(c1)C(N[C@H]1CCCN(c3nc4nc(Cl)ccc4[nH]3)C1)CCN2 (some centres undefined)
A. 14.7

Q. What do you have for Clc1cc(Br)cc(CN[C@H]2CCCN(c3nc4nc(Cl)ccc4[nH]3)C2)c1 ?
A. 19.2

Q. Please do the same for CCOc1c(Br)cc(Br)cc1CN[C@H]1CCCN(c2nc3nc(Cl)ccc3[nH]2)C1 as well.
A. 2.1
